Every entry's value here was drawn from patent US9802960B2.

target: Human VPS34 (Homo sapiens (Human)); assay: Human VPS34 enzyme assay (Adapta TR-FRET); type: biochemical; conditions: compound concentration 1.11 μM; read-out: Percent Inhibition
Provide the recorded inhibition at 1.11 µM for the entries that follow.

Input `CC(=O)Nc1cc(-c2cncc(N(CCO)S(=O)(=O)c3ccc(F)cc3F)c2)ccn1` . Output inhibition at 1.11 µM: 73%

The recorded inhibition at 1.11 µM for entry `CC(=O)Nc1cc(-c2ccc(S(=O)(=O)Nc3cc(-c4ccnc(NC(C)=O)c4)cnc3C)c(F)c2)ccn1` equals > 99%

Value of measured inhibition at 1.11 µM for the entry `CC(=O)Nc1cc(-c2cnc(Cl)c(NS(=O)(=O)c3ccc(Cl)cc3Cl)c2C)ccn1` : 85%

Reported inhibition at 1.11 µM ( `COC(=O)Nc1cc(-c2cnc(N)c(S(=O)(=O)C(C)C)c2)ccn1` ) = > 99%

Kindly note the recorded inhibition at 1.11 µM for `CC(=O)Nc1cc(-c2cncc(NS(=O)(=O)c3ccc(F)cc3F)c2)ccn1` , which is > 99%

For `CC(=O)Nc1cc(-c2cnc(F)c(NS(=O)(=O)c3ccc(F)cc3F)c2)ccn1` the molecule record lists inhibition at 1.11 µM as > 99%

The measured inhibition at 1.11 µM associated with `CC(=O)Nc1cc(-c2cnc(N)c(N3CCCS3(=O)=O)c2)ccn1` reads > 99%

`CC(=O)Nc1cc(-c2cnc(N)c(C(=O)NC3CCOCC3)c2)ccn1` yielded inhibition at 1.11 µM of > 99%

Lab note: measured inhibition at 1.11 µM of CC(=O)Nc1cc(-c2cnc(C)c(N3CC(N(C)C)CS3(=O)=O)c2)ccn1 (single isomer, unassigned) [Compound I-496] was > 99%

Summary for this molecule, `CC(=O)Nc1cc(-c2cnc3c(c2)c(S(=O)(=O)N2CCCC2)cn3C)ccn1` : inhibition at 1.11 µM is > 99%

inhibition at 1.11 µM measured on `CC(=O)Nc1cc(-c2cnc3cn(S(=O)(=O)C4CC4)nc3c2)ccn1` = > 99%

Short answer for `CC(=O)Nc1cc(-c2cnc(C)c(NS(=O)(=O)c3cccnc3)c2)ccn1` : inhibition at 1.11 µM was > 99%

molecule `COc1nc(C)nc(Nc2cc(-c3cnc(C)c(NS(=O)(=O)c4ccc(F)cc4F)c3)ccn2)n1` , inhibition at 1.11 µM observed: 99%

The reported inhibition at 1.11 µM of the molecule `CC(=O)Nc1cc(-c2cnc(C)c(NS(=O)(=O)c3ccc(F)cc3)c2)ccn1` was > 99%

response.value for `COc1ccccc1S(=O)(=O)Nc1cc(-c2ccnc(NC(C)=O)c2)cnc1C` (field: inhibition at 1.11 µM) = > 99%

Form field inhibition at 1.11 µM, entry CC(=O)Nc1cc(-c2cnc(C)c(N3CC(N(C)C)CS3(=O)=O)c2)ccn1 (single isomer, unassigned) [Compound I-497] : > 99%

`CNc1ncc(-c2ccnc(Nc3ccncn3)c2)cc1C(=O)N(C)C12CC(C1)C2` has a reported inhibition at 1.11 µM of 93%

Briefly, inhibition at 1.11 µM measured for `COc1ccc(S(=O)(=O)Nc2cc(-c3ccnc(NC(C)=O)c3)cnc2C)cc1` : > 99%

Lab note: measured inhibition at 1.11 µM of `CC(=O)Nc1cc(-c2cnc(C)c(NS(=O)(=O)c3ccc(C(F)(F)F)nc3)c2)ccn1` was > 99%

* * *

biological target: Human VPS34 (Homo sapiens (Human)); test: Human VPS34 enzyme assay (Adapta TR-FRET); type: biochemical; details: compound concentration 1.11 μM; read-out: Percent Inhibition
readout.type: inhibition at 1.11 µM (%)
Dear colleague, please return just the value in %, with no unit written.

Human VPS34 (Homo sapiens (Human)) inhibition at 1.11 µM of `CC(=O)Nc1cc(-c2cnc3[nH]cc(CN(C)C)c3c2)ccn1` is 90

The observed inhibition at 1.11 µM for `CCN(CC)S(=O)(=O)c1cc(-c2ccnc(NC(C)=O)c2)cnc1N` when tested with Human VPS34 (Homo sapiens (Human)) stands at 91

// assay Human VPS34 (Homo sapiens (Human)), entry `Cc1ncc(-c2ccnc(Nc3ccn(C)n3)c2)cc1NS(=O)(=O)c1ccc(F)cc1F` , inhibition at 1.11 µM value = 96

The compound `Cc1cnc(NC(=O)C2CC2)cc1-c1cnc(Cl)c(NS(=O)(=O)c2ccc(F)cc2F)c1C` on Human VPS34 (Homo sapiens (Human)): inhibition at 1.11 µM was 92

// compound `Cc1nccc(Nc2cc(-c3cc(NS(=O)(=O)c4ccc(F)cc4F)c4ccnn4c3)ccn2)n1` , assay Human VPS34 (Homo sapiens (Human)), inhibition at 1.11 µM value: 84

* * *

For each record, write down the corresponding inhibition at 1.11 µM.
molecular target: Human VPS34 (Homo sapiens (Human), UniProt Q8NEB9); assay: Human VPS34 enzyme assay (Adapta TR-FRET); format: biochemical; conditions: compound concentration 1.11 μM; read-out: Percent Inhibition
Sequence (Q8NEB9 whole entry): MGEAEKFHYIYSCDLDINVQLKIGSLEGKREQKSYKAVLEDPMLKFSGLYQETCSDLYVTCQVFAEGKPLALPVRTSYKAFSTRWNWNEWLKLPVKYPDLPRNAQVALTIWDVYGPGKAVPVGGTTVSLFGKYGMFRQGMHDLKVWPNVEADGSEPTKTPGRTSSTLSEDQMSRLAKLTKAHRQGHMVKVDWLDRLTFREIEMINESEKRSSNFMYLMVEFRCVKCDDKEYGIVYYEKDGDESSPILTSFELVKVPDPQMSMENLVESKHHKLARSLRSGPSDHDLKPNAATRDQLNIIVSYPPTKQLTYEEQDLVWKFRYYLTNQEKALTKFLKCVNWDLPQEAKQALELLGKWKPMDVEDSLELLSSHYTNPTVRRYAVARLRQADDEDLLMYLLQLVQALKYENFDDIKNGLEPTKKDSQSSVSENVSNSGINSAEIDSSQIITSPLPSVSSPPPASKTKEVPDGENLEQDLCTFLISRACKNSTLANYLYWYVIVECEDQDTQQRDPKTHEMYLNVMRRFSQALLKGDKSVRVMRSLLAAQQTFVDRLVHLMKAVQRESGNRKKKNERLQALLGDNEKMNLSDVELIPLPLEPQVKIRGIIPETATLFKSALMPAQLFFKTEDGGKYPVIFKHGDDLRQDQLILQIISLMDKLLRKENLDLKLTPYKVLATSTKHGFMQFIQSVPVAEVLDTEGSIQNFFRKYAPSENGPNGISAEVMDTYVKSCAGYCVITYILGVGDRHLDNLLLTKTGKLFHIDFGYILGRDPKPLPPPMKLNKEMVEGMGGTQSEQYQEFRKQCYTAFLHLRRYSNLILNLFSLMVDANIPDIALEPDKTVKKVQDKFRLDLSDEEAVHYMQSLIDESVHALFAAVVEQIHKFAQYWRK

Given item CC(=O)Nc1cc(-c2cnc(C)c(NS(=O)(=O)C3CCCCC3)c2)ccn1 [Compound I-72] , the value recorded as its inhibition at 1.11 µM is > 99%

Quick note, inhibition at 1.11 µM for CC(=O)Nc1cc(-c2cncc(S(=O)(=O)N3CCC(F)(F)C3)c2)ccn1 [Compound I-118] landed at > 99%

The compound identified as Cc1c(-c2ccnc(Nc3ccnc(C4CC4)n3)c2)cnc(Cl)c1NS(=O)(=O)N(C)C [Compound I-435] registered its inhibition at 1.11 µM at 96%

The reported value for CC(=O)Nc1cc(-c2cnc(N)c(S(=O)(=O)N(C(C)C)C(C)C)c2)ccn1 [Compound I-77] in terms of inhibition at 1.11 µM is > 99%

Reported inhibition at 1.11 µM for CC(=O)Nc1cc(-c2cncc(N(C)S(C)(=O)=O)c2)ccn1 [Compound I-20] was > 99%

So for Cc1nccc(Nc2cc(-c3cncc(C(=O)N4CC(F)(F)C4)c3)ccn2)n1 [Compound I-408] , the logged inhibition at 1.11 µM turned out to be > 99%

Entry CNc1ncc(-c2ccnc(NC(C)=O)c2)c(C)c1S(=O)(=O)NC(C)(C)C [Compound I-436] , inhibition at 1.11 µM reported as 89%

inhibition at 1.11 µM reported for this compound CC(=O)Nc1cc(-c2cncc(S(=O)(=O)NC34CC5CC(CC(C5)C3)C4)c2)ccn1 [Compound I-468] : > 99%

Reported inhibition at 1.11 µM ( CC(=O)Nc1cc(-c2cncc(C(=O)/C=C/c3ccc(F)cc3)c2)ccn1 [Compound I-198] ) = 68%

Kindly note the recorded inhibition at 1.11 µM for CNS(=O)(=O)c1cc(-c2ccnc(NC(C)=O)c2)cnc1N [Compound I-89] , which is > 99%

response.value for CC(=O)Nc1cc(-c2cnc3cc[nH]c3c2)ccn1 [Compound I-17] (field: inhibition at 1.11 µM) = > 99%

Consider CC(=O)Nc1cc(-c2cnc(C)c(NS(=O)(=O)c3ccc(C(C)(C)C)cc3)c2)ccn1 [Compound I-131] . Its measured inhibition at 1.11 µM is > 99%

Looking up CNc1ncc(-c2ccnc(NC(C)=O)c2)cc1N1CCCS1(=O)=O [Compound I-132] , I found its inhibition at 1.11 µM recorded as > 99%

Quick note, inhibition at 1.11 µM for CC(=O)Nc1cc(-c2cnc(C)c(NS(=O)(=O)c3ccc(F)cc3F)c2C)ccn1 [Compound I-247] landed at > 99%

So for CC(=O)Nc1cc(-c2cnc(C)c(NS(=O)(=O)c3ccc(F)c(F)c3)c2)ccn1 [Compound I-59] , the logged inhibition at 1.11 µM turned out to be > 99%

For CC(=O)Nc1cc(-c2cc(NS(=O)(=O)c3ccc(F)cc3F)c(C)[n+]([O-])c2)ccn1 [Compound I-258] the compound record lists inhibition at 1.11 µM as 88%

Looking up CCN(C)S(=O)(=O)Nc1cc(-c2ccnc(NC(C)=O)c2)cnc1C [Compound I-273] , I found its inhibition at 1.11 µM recorded as > 99%

Field inhibition at 1.11 µM (entry CC(=O)Nc1cc(-c2cnc(N)c(S(=O)(=O)Nc3ccc4ccccc4c3)c2)ccn1 [Compound I-98] ) reads > 99%

Documented inhibition at 1.11 µM of CC(=O)Nc1cc(-c2cnc(C)c(NS(=O)(=O)c3cccc(C)c3F)c2)ccn1 [Compound I-339] : 98%
